Origin of the recorded values: PubChem BioAssay

# assayInfo: binders of probe aFGF10 on microarray, primary screen, stem cell growth factor project, biochemical, small-molecule microarray, fluorescence 635/667 (AID 1071);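 further: score merges 667 nm spot intensity and signal to noise from triplicate slides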
# conditionDescription: higher = more signal
metricName: composite z-score
In your answer, state the number alone without any accompanying words.

Completed entries (count: 3):
compound	metricName	value
CC(C)C[C@@H]1NC(=O)[C@@H]2C[C@H](C(=O)NCCCCCN)[C@H](c3ccc(O)cc3)N2C1=O	composite z-score	0.335
C=CCOC(=O)[C@H]1[C@@H]2C(=O)O[C@@H](c3ccccc3)[C@@H](c3ccccc3)N2[C@@H](c2ccc(OCCOC(=O)[C@H]3C[C@H]4C(=O)N[C@@H](CCCCNC(C)=O)C(=O)N4[C@H]3c3ccc(O)cc3)cc2)[C@]12C(=O)Nc1ccccc12	composite z-score	0.0817
CN(C)C(=O)C1N=C(c2ccc(OCCCO)cc2)N(c2ccccc2)O1 (stereo not given)	composite z-score	0.929

Given the compound CN1C(=O)C2C=CC(C(O)C#Cc3ccccc3)N(Nc3ccccc3)C2C1=O (stereo not given) , what is its reported composite z-score? 1.17

Further, for COC(=O)CCCCCCC(=O)Nc1ccc(NC(=O)CCCC[P+](c2ccccc2)(c2ccccc2)c2ccccc2)cc1 ? 0.695

Further, for O=C1c2ccccc2[C@](Cc2ccccc2I)(C(=O)NCC(F)(F)F)[C@H](c2ccc(CO)cc2)N1C1CCCCC1 ? 0.94

Further, for CC1=C([C@H](O)CCc2ccccc2)[C@H](CO)[C@@H]2C(=O)N(C)C(=O)[C@@H]2C1 ? 0.0805

Further, for CN(C)CCCCNC(=O)[C@@H]1C[C@@H]2C(=O)N[C@@H](Cc3ccccc3)C(=O)N2[C@@H]1c1cccc(OCCO)c1 ? 0.645

Further, for O=C(NCc1ccccc1)[C@@H]1c2ccccc2C(=O)N(Cc2ccccc2C(F)(F)F)[C@H]1c1ccc(CO)cc1 ? -0.0459

Further, for COC(=O)c1c(CC[C@@H](CO)NC(=O)N[C@H](Cn2cc(C3(O)CCCCC3)nn2)C(C)C)oc(C(C)=O)c1C(=O)OC ? 0.815

Further, for CC1CC/C=C\[C@H]2OC34C=CCN(C(C)C)C(=O)[C@H]3N(CCCCCCO)C(=O)[C@@H]4C2C(=O)O1 (stereo not given in full) ? -0.178

Further, for C=CCNC(=O)[C@@H]1[C@H]2C(=O)O[C@H](c3ccccc3)[C@H](c3ccccc3)N2[C@H](c2ccc(O)cc2)[C@@]12C(=O)N(C(=O)OCCOC)c1ccc(C#CC3(O)CCCCCC3)cc12 ? -1.52

Further, for C=C(C(=O)CC[C@@H](OC(C)=O)c1ccc(CO)o1)C(C)C ? 0.114

Further, for COC(=O)c1c2oc(c1C(=O)OC)C(=O)N(C)Cc1cn(nn1)C[C@H](Cc1ccccc1)NC(=O)N[C@H](CO)CC2 ? -0.248

Further, for [N-]=[N+]=NCc1ccccc1[C@@H]1OC(c2ccc(OCCCO)cc2)=N[C@]1(CCS(=O)(=O)c1ccccc1)C(=O)NCC(O)CO (stereo not given in full) ? 0.367

---

# assayInfo: small-molecule microarray binders of probe aShh, primary screen, biochemical, biotinylated probe, 635/667 nm fluorescence (AID 1114);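 further: probe is biotin-labelled aShh protein from a stem cell growth factor screen; measures binding of labelled protein to compounds printed on the slide; score merges feature fluorescence at 667 nm with signal-to-noise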
# conditionDescription: higher = more signal
Binary classification by composite z-score, with 0.004 as an inclusive lower bound for MET; all other cases are NOT MET.

// below: answered molecules
molecule	labelClass
COCC1=C2[C@@H](CCc3ccccc3)OB(O)C[C@@H]2[C@@H]2C(=O)C=CC(=O)[C@@H]2C1	MET
COC(=O)c1c(CC[C@@H](CO)NC(=O)N[C@H](Cn2cc(C3(O)CCCCC3)nn2)C(C)C)oc(C(C)=O)c1C(=O)OC	MET
[N-]=[N+]=Nc1ccccc1[C@@H]1OC(c2ccc(OCCCO)cc2)=N[C@]1(Cc1ccccc1)C(=O)NCC(O)CO (stereo not given in full)	MET
COC1OC[C@]2(C)[C@H]3C4=C(CN2C(=O)OC(C)(C)C)[C@H](C)C(CO)C(CO)C4CC[C@@H]13 (stereo not given in full)	MET
CCOC(=O)c1ccc(NC(=O)O[C@H]2[C@H](OC(=O)Nc3ccc4c(c3)OCO4)[C@H](OC(=O)Nc3ccc4c(c3)OCO4)[C@@H](OC)O[C@@H]2CO)cc1	MET
CCC(CC)C(O)C1C=CC2C(=O)N(c3ccccc3)C(=O)C2N1Nc1ccc(C(C)C)cc1 (stereo not given)	MET

Pending molecule:
Check this molecule for composite z-score at or above 0.004: COc1ccc(NC(=O)O[C@H]2[C@H](OC(=O)Nc3ccccc3)[C@H](OC(=O)Nc3ccccc3)[C@@H](OC)O[C@@H]2CO)cc1 MET

---

Each entry below carries its reported composite z-score.
# assayInfo: small-molecule binders of probe aNOTCH2, primary screen, biochemical, small-molecule microarray, 635/667 nm fluorescence (AID 1121);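 further: score merges feature fluorescence read at 667 nm with its signal to noise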
# conditionDescription: higher = more signal
In your answer, state the number alone without any accompanying words.

Completed entries (count: 5):
structureNotation	composite z-score
CO[C@H]1O[C@H](CO)[C@@H](OC(=O)Nc2ccc3c(c2)OCO3)[C@H](OC(=O)c2cc3ccccc3[nH]2)[C@H]1OC(=O)c1cc2ccccc2[nH]1	-0.0875
CCOC(=O)[C@H]1[C@@H]2C(=O)N3CCC[C@H]3[C@H](O[Si](C(C)C)(C(C)C)C(C)C)[C@H]2C=C2CCN(S(=O)(=O)c3ccc(C)cc3)C[C@H]21	-0.112
O=C1O[C@@H](c2ccccc2)[C@@H](c2ccccc2)N2[C@@H](c3ccc(O)cc3)[C@]3(C(=O)Nc4ccc(C#CC5(O)CCCCCC5)cc43)[C@@H](C(=O)NC[C@H](O)c3ccccc3)[C@H]12	-0.0984
COCC1=C2[C@@H](CCc3ccccc3)OB(O)C[C@@H]2[C@@H]2C(=O)C=CC(=O)[C@@H]2C1	-0.12
CCOC(=O)C[C@H]1[C@H](OC(=O)c2ccccc2-c2ccccc2)[C@@H](NC(=O)C2CCCCC2)c2cc(OCCCO)ccc2N1C(=O)Cc1ccc(OC)cc1	-0.122

Pending compound:
Given the compound C=CCN1Cc2ccccc2[C@H]2OC(c3ccc(OCCCO)cc3)=N[C@@]2(CC=C)C1=O , what is its reported composite z-score? 0.007

---

Each entry below carries its reported composite z-score.
# assayInfo: small-molecule microarray binders of probe aDKK1, primary screen, biochemical, biotinylated probe, 635/667 nm fluorescence (AID 1099);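 further: score merges 667nm spot fluorescence with signal to noise across triplicate slides; reference of the scale not given here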
# conditionDescription: higher = more signal
In your answer, state the number alone without any accompanying words.

Completed entries (count: 3):
> print(dat)
                          structurenotation    value
1  CCOC(=O)[C@H]1[C@@H]2C(=O)N3CCC[C@H]3[C@H](O[Si](C(C)C)(C(C)C)C(C)C)[C@H]2C=C2CCN(S(=O)(=O)c3ccc(C)cc3)C[C@H]21   -0.341
2  C=C(/C(=C/C[C@H](OC(=O)c1ccncc1)c1ccc(CO)o1)c1cc(C(=O)OC)ccc1OC)C(C)C  -0.0125
3  COC(=O)[C@@]1(Cc2ccccc2)[C@@H]2C(=CC(=O)[C@H]2CC(=O)C(=O)N(C)C)CN1C(=O)c1ccccc1     1.08

Pending compound:
Given the compound COC(=O)[C@@]1(Cc2ccc(F)cc2)[C@H]2c3cc(C(=O)N(C)C)n(CCc4ccc(O)c(OC)c4)c3C[C@H]2CN1C(=O)c1ccccc1 , what is its reported composite z-score? 2.29

---

# assayInfo: A549 lung cancer cell viability effects, profiling panel, resazurin fluorescence, 24 h, PK04 Diversity Set (AID 1171); further: test concentration not given here
# conditionDescription: higher = more signal, called active from +8 up or from −8 down
metricName: z-score
In your answer, state the number alone without any accompanying words.

Completed entries (count: 10):
compound	metricName	value
C[C@]1(C(=O)NC2CC2)c2ccccc2C(=O)N(Cc2ccccc2)[C@H]1c1ccc(CO)cc1	z-score	0.54
COC(=O)[C@@]1(Cc2ccc(F)cc2)[C@H]2c3cc(C(=O)N4CCCC4)n(CCc4ccc(O)c(O)c4)c3C[C@H]2CN1C(=O)c1ccccc1	z-score	0.0195
O=C1NC(=O)C2C1C=CC(C(O)c1cccc3ccccc13)N2Nc1ccc(Cl)cc1Cl (centres undefined)	z-score	-0.993
CCCNC(=O)[C@@]1(c2ccc([N+](=O)[O-])cc2)CC(=O)N(C2CCCCC2)[C@@H]1c1ccc(CO)cc1	z-score	1.13
CC1CC/C=C\[C@H]2OC34C=CCN(C(C)C)C(=O)[C@H]3N(CCCCCCO)C(=O)[C@@H]4C2C(=O)O1 (some centres undefined)	z-score	0.599
C=CCC(OC(C)=O)[C@@H]1[C@@H](N(Cc2ccc(-c3cccc(C(F)(F)F)c3)o2)C(=O)c2ccc(C)cc2)c2cc(OCCCO)ccc2N1C(=O)c1ccc2ccccc2c1 (some centres undefined)	z-score	0.462
O=C(CS)NCCCCCCNC(=O)[C@H]1C[C@H]2C(=O)N[C@@H](Cc3ccccc3)C(=O)N2[C@H]1c1ccc(O)cc1	z-score	1.26
[N-]=[N+]=NCc1ccccc1C[C@@]1(C(=O)NCc2ccccc2)N=C(c2ccc(OCCCO)cc2)O[C@@H]1c1ccccc1N=[N+]=[N-]	z-score	-0.0617
COC(=O)[C@@]1(Cc2ccc(OC)cc2)[C@@H]2C(=CC(=O)[C@H]2CC(=O)C(=O)N(C)C)CN1C(=O)c1ccccc1	z-score	-1.34
CC(C)(C)OC(=O)CC[C@]1(C(=O)NCC(O)CO)N=C(c2ccc(OCCCO)cc2)O[C@H]1c1ccccc1 (some centres undefined)	z-score	0.489

Given the compound CCCCCCCCCCC(O)C1C=CC2C(=O)N(C)C(=O)C2N1Nc1ccc([N+](=O)[O-])cc1[N+](=O)[O-] (centres undefined) , what is its reported z-score? -0.283

Further, for C=C[C@@H](COC(C)=O)N(C(=O)OC(C)(C)C)S(=O)(=O)c1ccc(Br)cc1 ? -0.586

Further, for COc1ccc(CCNC(=O)[C@@]2(Sc3ccc(C)cc3)CC(=O)N(C3Cc4ccccc4C3)[C@@H]2c2ccc(CO)cc2)cc1 ? 0.358

Further, for COCCOC(=O)N1C(=O)[C@@]2(c3cc(C#Cc4ccc(OC)cc4)ccc31)[C@H](C(=O)Nc1nc3ccccc3s1)[C@H]1C(=O)O[C@H](c3ccccc3)[C@H](c3ccccc3)N1[C@@H]2c1ccc(O)cc1 ? 0.0344
